- protocol_summary: Cmax in Wistar rat at 15 mg/kg, po
- Assay type: ADME, organism-based
- Parameters: dose 15 mg/kg, route oral
- study_conditions: in vivo
measurement_label: Cmax

molecule=CCc1ccc([C@@H]2c3[nH]c4ccccc4c(=O)c3CN2c2ncc(-c3ccccn3)cn2)s1 measured_result="27.5 ng/mL"

query: Dear colleague, I am looking for the recorded Cmax of the following molecule: CCc1ccc([C@@H]2c3[nH]c4ccccc4c(=O)c3CN2c2ncc(-c3ccccn3)cn2)o1
result: 46.9 ng/mL

----------
- test_target: cGMP-specific 3',5'-cyclic phosphodiesterase (Homo sapiens, UniProt O76074)
- protocol_summary: Inhibition of N-terminal GST-tagged full length recombinant human PDE5A1 catalytic domain expressed in Baculovirus infected Sf9 insect cells using FAM-cGMP as substrate after 1 hr by fluorescence polarization assay
Recorded IC50, one value per entry.
I only need the number, in nM, no unit after it.

molecule=CCc1ccc([C@H]2c3[nH]c4ccccc4c(=O)c3CN2c2ncc(-c3ccccn3)cn2)s1 display_unit=nM measured_result=26.9
molecule="CCc1ccc(C2c3[nH]c4ccccc4c(=O)c3CN2c2ncc(-c3ccccn3)cn2)o1 (racemic)" display_unit=nM measured_result=0.54
molecule="CCc1ccc(C2c3[nH]c4ccccc4c(=O)c3CN2c2ncc(Br)cn2)s1 (configuration not stated)" display_unit=nM measured_result=3.28
molecule="CCc1ccc(C2c3[nH]c4ccccc4c(=O)c3CN2c2ncc(-c3ccc(OC)cc3)cn2)s1 (configuration not stated)" display_unit=nM measured_result=6.45
molecule="CCc1ccc(C2c3[nH]c4ccccc4c(=O)c3CN2c2ncc(-c3ccc(OC)c(OC)c3)cn2)s1 (configuration not stated)" display_unit=nM measured_result=1.25

query: Dear colleague, I am looking for the recorded IC50 of the following molecule: CCc1ccc([C@@H]2c3[nH]c4ccccc4c(=O)c3CN2c2ncc(-c3ccccn3)cn2)o1
result: 0.39

query: Dear colleague, I am looking for the recorded IC50 of the following molecule: CCc1ccc(C2c3[nH]c4ccccc4c(=O)c3CN2c2ncccn2)s1 (configuration not stated)
result: 2.5

# credit: ChEMBL document CHEMBL4196066
